Just for reference, patent US20190330316A1 is where these values come from.

# Test Target: recombinant human tau (human, UniProt P10636 1-383)
# Sequence (P10636 other isoform, or with tags, fused parts or gaps): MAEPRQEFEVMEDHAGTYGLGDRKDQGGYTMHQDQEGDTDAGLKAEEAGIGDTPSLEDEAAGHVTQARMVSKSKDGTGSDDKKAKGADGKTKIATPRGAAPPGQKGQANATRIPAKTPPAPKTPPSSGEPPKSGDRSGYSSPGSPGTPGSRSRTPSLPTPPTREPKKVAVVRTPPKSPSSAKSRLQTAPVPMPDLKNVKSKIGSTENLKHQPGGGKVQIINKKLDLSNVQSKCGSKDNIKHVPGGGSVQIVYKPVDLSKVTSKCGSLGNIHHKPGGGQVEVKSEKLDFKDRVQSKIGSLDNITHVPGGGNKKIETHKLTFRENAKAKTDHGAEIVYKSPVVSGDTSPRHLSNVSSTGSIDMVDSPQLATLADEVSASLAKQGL
# Experiment Notes: SPR
Measured Quantity: Kd (nM)
Entry rule: numbers only, all in nM.

### Prompt Identify Kd associated with the binder hu16G7VHv2a/hu16G7VLv2 (antibody, V domains shown) VH: EVQLVQSGAEVVKPGASVKVSCKASGYTFTSSWIHWVRQRPGQGLEWIGEIYPNSGNTNYNEKFKGKATLTVDISISTAYMELSRLTSDDTAVYYCARLGWLIPLDYWGQGTTVTVSS VL: DIVLTQSPSSLAVSVGERATISCKSSQSLLDGNDQKNYLAWYQQKPGQSPKLLIYWASTRESGVPDRFSGSGSGTDFTLTISSLQAEDVAVYYCQQFYDYPWTFGGGTKLEIKR
### Response 0.277
